// pIC50 collected for Histone deacetylase 3 (Homo sapiens, UniProt O15379)
pIC50: −log10 of the molar value.
assay endpoint: pIC50

compound	pIC50
Nc1ccccc1NC(=O)c1ccc(NC(=O)Nc2ccc(-c3nc(N4CCOCC4)nc(N4CCOCC4)n3)cc2)cc1	6.87
Nc1ccccc1NC(=O)CCCCCNC(=O)c1ccc(NC(=O)Nc2ccc(-c3nc(OC4CCOC4)nc(N4CCOCC4)n3)cc2)cc1 (stereo not drawn)	7.27

1 = Nc1ccccc1NC(=O)CCCCCCNC(=O)c1ccc(NC(=O)Nc2ccc(-c3nc(OC4COC4)nc(N4CCOCC4)n3)cc2)cc1
2 = Nc1ccccc1NC(=O)CCCCCCCNC(=O)c1ccc(NC(=O)Nc2ccc(-c3nc(N4CCOCC4)nc(N4CCOCC4)n3)cc2)cc1
3 = Nc1ccccc1NC(=O)CCCCCNC(=O)c1ccc(NC(=O)Nc2ccc(-c3nc(N4CCOCC4)nc(N4CCOCC4)n3)cc2)cc1
Challenge: List these items ordered by pIC50, big to small. I would appreciate it if you listed the labels in the requested order.
Response given: 1, 3, 2

###

- method notes: Stability in human liver microsomes assessed as compound remaining at […] preincubated for 5 mins followed by NADPH addition and measured after 30 mins by LC-MS/MS analysis
- Type: ADME, Microsome
- condition summary: time 35 min, read-out: Stability
assay endpoint: remaining at 0.5 h (%)
Please give a number only; it is taken to be in %.

Challenge: Report remaining at 0.5 h for COc1nc(-c2ccc(NC(=O)Nc3ccc(C(=O)NCCCCCC(=O)Nc4ccccc4N)cc3)cc2)nc(N2CCOCC2)n1 please.
Response given: 46.9

###

- method notes: Stability in human liver microsomes assessed as compound remaining at […] preincubated for 5 mins followed by NADPH addition and measured after 5 mins by LC-MS/MS analysis
- Type: ADME, Microsome
- condition summary: time 10 min, read-out: Stability
assay endpoint: remaining at 5 min (%)
Reply with just the number (in %).

Challenge: Which value of remaining at 5 min has been reported for COc1nc(-c2ccc(NC(=O)Nc3ccc(C(=O)NCCCCCC(=O)Nc4ccccc4N)cc3)cc2)nc(N2CCOCC2)n1 in the records?
Response given: 83.8

###

- Tested on: HL-60
- method notes: Antiproliferative activity against human HL-60 cells incubated for 48 hrs by resazurin dye based fluorescence micro plate reader analysis
- Type: functional, cell-based
- condition summary: HL-60, 48 h
pIC50: −log10 of the molar value.
assay endpoint: pIC50

query smiles	pIC50
CC(=O)Nc1ccc(C(=O)Nc2ccccc2N)cc1	5.55

I = COc1nc(-c2ccc(NC(=O)Nc3ccc(C(=O)NCCCCCC(=O)Nc4ccccc4N)cc3)cc2)nc(N2CCOCC2)n1
II = CNCCNC(=O)c1ccc(NC(=O)Nc2ccc(-c3nc(OC)nc(N4CCOCC4)n3)cc2)cc1
Challenge: Looking only at measured pIC50, which entry is lower, I or II ? Indicate your choice by writing its label.
Response given: II
(II: 5.51, I: 6.05)

###

- method notes: Stability in mouse liver microsomes assessed as compound remaining at […] preincubated for 5 mins followed by NADPH addition and measured after 5 mins by LC-MS/MS analysis
- Format: ADME, Microsome
- condition summary: time 10 min, read-out: Stability
assay endpoint: remaining at 5 min (%)
Form entry: value (%) — number only.

Challenge: Recorded remaining at 5 min of COc1nc(-c2ccc(NC(=O)Nc3ccc(C(=O)NCCCCCC(=O)Nc4ccccc4N)cc3)cc2)nc(N2CCOCC2)n1 , please.
Response given: 94
